The entries below are paired with their reported EC50.
- tested_target: T1, human NKp46 expressed on cells (human, UniProt O76036 22-304)
- T1 construct: SNK6 cells express NKp46 naturally; also called hNKp46; Raji-hNKp46
- T1 sequence (O76036 22-304 Q82K limits assumed): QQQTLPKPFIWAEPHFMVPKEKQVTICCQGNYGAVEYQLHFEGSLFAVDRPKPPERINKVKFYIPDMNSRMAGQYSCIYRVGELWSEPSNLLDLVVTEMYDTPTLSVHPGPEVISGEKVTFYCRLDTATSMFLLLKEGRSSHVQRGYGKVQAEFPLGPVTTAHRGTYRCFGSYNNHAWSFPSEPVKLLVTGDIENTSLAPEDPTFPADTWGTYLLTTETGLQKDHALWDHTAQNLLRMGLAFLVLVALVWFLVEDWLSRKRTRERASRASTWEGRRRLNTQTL
- method: flow cytometry on Raji-hNKp46 cells, dose range, anti-human IgG1-PE detection
readout_type: EC50 (µg/mL)

[[record]]
binder = "17E1 (antibody, V domains shown, also called CHG1-M-H46 17E1) VH: QVQLQQPGSVLVRPGASVKLSCKASGYTFTSSWMHWAKQRPGQGLEWIGHIHPNSGISNYNEKFKGKATLTVDTSSSTAYVDLSSLTSEDSAVYYCSRGGRFDDWGAGTTVTVSS VL: DIQMTQSPSSLSASLGERVSLTCRASQDIGSSLNWLQQEPDGTIKRLIYATSRLDSGVPKRFSGSRSGSDYSLTISSLESEDFVDYYCLQYASSPWTFGGGTKLEIK"
readout_type = "EC50"
value = 0.055

[[record]]
binder = "9H11B (antibody, V domains shown, Same heavy chain variable domain as 9H11A with a different light chain; also called CHG1-M-H46 9H11-B) VH: QVQLQQPGAELVKPGASVKLSCKASGYTFTSYWMHWVKLRPGQGFEWIGEIIPSNGVTNYNEKFKRKATLTVDKSSSTAYMQLSSLTSEDSAVYYCTIRLRYALDYWGQGTSVTVSA VL: DIVMTQSQKFMSTSVGDRVSVTCKASQNVGTNVAWYQQKPGQSPKALIYSTSFRYSGVPDRFTGSGSGTDFTLTISNVQSEDLAEYFCQQYNSYPFTFGSGTKLEIK"
readout_type = "EC50"
value = 0.124

[[record]]
binder = "9H11A (antibody, V domains shown, also called CHG1-M-H46 9H11-A) VH: QVQLQQPGAELVKPGASVKLSCKASGYTFTSYWMHWVKLRPGQGFEWIGEIIPSNGVTNYNEKFKRKATLTVDKSSSTAYMQLSSLTSEDSAVYYCTIRLRYALDYWGQGTSVTVSA VL: DIQMTQTTSSLSASLGDRVTISCRASQDISNFLNWYQQKPDGTVKLLIYYTSRLHSGVPSRFSGSGSGTDYSLTISNLEQEDIATYFCQQGNTLPPTFGGGTKLEIK"
readout_type = "EC50"
value = 0.051

[[record]]
binder = "8B6B (antibody, V domains shown, Same heavy chain variable domain as 8B6A with a different light chain; also called CHG1-M-H46 8B6-B) VH: QVQLQQPGSELVRPGASVKLSCKASGYTFTSYWMHWVKQRPGQGLEWIGTIYPGSDITNYDEKFKNKATLTVDTSSSTAYMQLSSLTSEDSAVYYCTRDGRFANWGQGTLVTVSA VL: EIQMTQSPSSLSASLGERVSLTCRASQDIGSSLNWLQQEPDGTIKRLIYATSSLDSGVPKRFSGSRSGSDYSLTISSLESEDFVDYYCLQYASSPYTFGGGTKLEIK"
readout_type = "EC50"
value = 0.076

[[record]]
binder = "8B6A (antibody, V domains shown, Mouse variable domains; light chain is kappa (VK); also called CHG1-M-H46 8B6-A) VH: QVQLQQPGSELVRPGASVKLSCKASGYTFTSYWMHWVKQRPGQGLEWIGTIYPGSDITNYDEKFKNKATLTVDTSSSTAYMQLSSLTSEDSAVYYCTRDGRFANWGQGTLVTVSA VL: EIVLTQSPAITAASLGQKVTITCSASSSVSYMHWYQQKSGTSPKPWIYEISKLASGVPARFSGSGSGTSYSLTISSMEAEDAAIYYCQQWNLPLTFGAGTKLELK"
readout_type = "EC50"
value = 0.148

